# assay_details: Pharmacokinetic study of Cory B, CB6 and CB8 in rats (plasma, LC/MS/MS, NCA)
# Design: species or system Male Sprague-Dawley (SD) rats
# measurement_context: male, Sprague-Dawley, rat, in vivo, inhaled or intranasal, 1 mg/kg
endpoint_name: AUC (ng·h/mL)
Write the answer as a number in ng·h/mL, unit excluded.

(Q) Field request: AUC | item: C=CCN1C(=O)[C@]2(CCN3C[C@@H](CC)[C@@H](/C(=C\OC)C(=O)OC)C[C@H]32)c2ccccc21
(A) 124

(Q) # repeat for CCCN1C(=O)[C@]2(CCN3C[C@@H](CC)[C@@H](/C(=C\OC)C(=O)OC)C[C@H]32)c2ccccc21
(A) 200

====

# assay_details: Pharmacokinetic study of Cory B, CB6 and CB8 in rats (plasma, LC/MS/MS, NCA)
# Parameters: species or system Male Sprague-Dawley (SD) rats
# measurement_context: male, Sprague-Dawley, rat, in vivo; rats, intravenous, 1 mg/kg; read-out: Cmax (maximum plasma concentration)
endpoint_name: Cmax (ng/mL)
Express it in ng/mL; write the number only.

(Q) Dear colleague, I am looking for the recorded Cmax of the following molecule: CC[C@@H]1CN2CC[C@]3(C(=O)Nc4ccccc43)C2C[C@@H]1C(=COC)C(=O)OC (stereo partly shown)
(A) 66

====

# assay_details: Pharmacokinetic study of Cory B, CB6 and CB8 in rats (plasma, LC/MS/MS, NCA)
# Design: species or system Male Sprague-Dawley (SD) rats
# measurement_context: male, Sprague-Dawley, rat, in vivo, inhaled or intranasal; rats, intranasal, 1 mg/kg; read-out: MRT (mean residence time) (converted)
endpoint_name: MRT (h)
// return numeric value only (unit: h, not printed)

(Q) For CC[C@@H]1CN2CC[C@]3(C(=O)Nc4ccccc43)C2C[C@@H]1C(=COC)C(=O)OC (stereo partly shown) , what is its reported MRT?
(A) 2.22

====

# assay_details: Pharmacokinetic study of Cory B, CB6 and CB8 in rats (plasma, LC/MS/MS, NCA)
# Set-up: species or system Male Sprague-Dawley (SD) rats
# measurement_context: male, Sprague-Dawley, rat, in vivo, inhaled or intranasal, 1 mg/kg
endpoint_name: half-life (h)
Give a bare numeral; the unit h is implied.

(Q) Item under review: CCCN1C(=O)[C@]2(CCN3C[C@@H](CC)[C@@H](/C(=C\OC)C(=O)OC)C[C@H]32)c2ccccc21 [CB6] . Reported half-life?
(A) 1.93

(Q) Please give the result for C=CCN1C(=O)[C@]2(CCN3C[C@@H](CC)[C@@H](/C(=C\OC)C(=O)OC)C[C@H]32)c2ccccc21 [CB8] too.
(A) 1.65

====

# assay_details: Pharmacokinetic study of Cory B, CB6 and CB8 in rats (plasma, LC/MS/MS, NCA)
# Set-up: species or system Male Sprague-Dawley (SD) rats
# measurement_context: male, Sprague-Dawley, rat, in vivo; rats, intravenous, 1 mg/kg; read-out: AUC (area under the curve) (converted)
endpoint_name: AUC (ng·h/mL)
Respond numerically; units are ng·h/mL and should not be typed.

(Q) Sample CC[C@@H]1CN2CC[C@]3(C(=O)Nc4ccccc43)C2C[C@@H]1C(=COC)C(=O)OC (stereo partly shown) [Cory B, Corynoxine B] — what was its AUC?
(A) 63.6

====

# assay_details: Pharmacokinetic study of Cory B, CB6 and CB8 in rats (plasma, LC/MS/MS, NCA)
# Design: species or system Male Sprague-Dawley (SD) rats
# measurement_context: male, Sprague-Dawley, rat, in vivo; rats, intravenous, 1 mg/kg; read-out: t1/2 (plasma half-life)
endpoint_name: half-life (h)
// note: answer is a bare numeric in h

(Q) Value lookup for half-life; key = CC[C@@H]1CN2CC[C@]3(C(=O)Nc4ccccc43)C2C[C@@H]1C(=COC)C(=O)OC (stereo partly shown) [Cory B, Corynoxine B]
(A) 2.13
